Test system: VDR:RXRa (NR concentration 270 nM, RXRa partner concentration 90 nM)
Assay: PBM binding z-score (relative to random genomic background probes); higher = stronger binding; sequences stand for … in GC…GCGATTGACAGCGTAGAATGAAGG
Answer each item with its documented PBM binding z-score.
Please state the value as a number alone, without comment.

# sequence `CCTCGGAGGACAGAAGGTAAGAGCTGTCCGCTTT` ; its PBM binding z-score = -0.622

# sequence `CCTCGGAGGACAACAGGAGGTCAGAGATGCCAGA` ; its PBM binding z-score = 2.29

# sequence `CCAACTGGGGCAAGGTTACCATAACGCACAGCCA` ; its PBM binding z-score = 0.166

# sequence `TCATATATGTAAAAGGTGAAAGTCGGTGTGGTAA` ; its PBM binding z-score = 1.24
